Measured AC50 values are reported for all entries that follow.
# System: HTT mRNA, alternative junction (AJ)
# procedure.summary: Splicing assay (RT-qPCR): increase in HTT alternative junction (AJ) mRNA
# Type: cell-based
# experimental.conditions: A673 or K562 cell line, 24 hours treatment, top dose 10 uM; concentration having 50% response in AJ increase
Counter-ions that a name gives are not always drawn.

CCNC1CCN(c2ccc(C(=O)Nc3cc(F)c4nc(C)cn4c3)c3nnccc23)CC1 [Compound 139] : 1000 to 10000 nM
Cc1cn2cc(NC(=O)c3ccc(N4CCN5CCCC5C4)c4ccnnc34)cc(F)c2n1 (stereo not shown) [Compound 107] : 100 to 1000 nM

Exercise: Requested read-out: AC50. Entry: Cc1cn2cc(NC(=O)c3ccc(N4CCC(NC(C)(C)C)CC4)c4ccnnc34)cc(F)c2n1 [Compound 138]
Key: 1000 to 10000 nM

Exercise: Try the molecule CCC1CN(c2ccc(C(=O)Nc3cc(F)c4nc(C)cn4c3)c3nnccc23)CCN1 (stereo not shown) [Compound 130, hydrochloride]
Key: 1000 to 10000 nM

Exercise: Try the molecule Cc1cn2cc(NC(=O)c3ccc(N4CCNCC4)c4ccnnc34)cc(Cl)c2n1 [Compound 124]
Key: 1000 to 10000 nM

Exercise: Try the molecule COc1ccc2c(N3CCNCC3)ccc(-c3cc(F)c4nc(C)cn4c3)c2n1 [Compound 114]
Key: > 10000 nM

Exercise: Try the molecule Cc1cn2cc(-c3ccc(N4CCNCC4)c4ccc(O)nc34)cc(F)c2n1 [Compound 144]
Key: > 10000 nM

Exercise: Try the molecule Cc1cn2cc(NC(=O)c3ccc(N(C)[C@@H]4C[C@H]5CC[C@@H](C4)N5)c4ccnnc34)cc(F)c2n1 [Compound 156]
Key: > 10000 nM

Exercise: Try the molecule Cc1cn2nc(NC(=O)c3ccc(N4CCNCC4)c4ccnnc34)cc2c(C)n1 [Compound 123]
Key: 1000 to 10000 nM

Exercise: Try the molecule Cc1cn2cc(NC(=O)c3ccc(N4CCN(C)C(C)C4)c4ccnnc34)cc(F)c2n1 (stereo not shown) [Compound 129]
Key: 1000 to 10000 nM

Exercise: Try the molecule Cc1cn2cc(NC(=O)c3ccc(N4CCNCC4)c4nccnc34)cc(F)c2n1 [Compound 111]
Key: 1000 to 10000 nM

###

# Test system: HTT mRNA, alternative junction (AJ)
# procedure.summary: Splicing assay (RT-qPCR): increase in HTT alternative junction (AJ) mRNA
# Type: cell-based
# experimental.conditions: A673 or K562 cell line, 24 hours treatment, top dose 10 uM; concentration having 50% response in AJ increase
property.label: AC50

Cc1cn2cc(NC(=O)c3ccc(N4CCNC(C)C4)c4ccnnc34)cc(F)c2n1 (stereo in doubt) [Compound 146] : 100 to 1000 nM
Cc1cn2cc(NC(=O)c3ccc(N4CCNCC4)c4ncnnc34)cc(F)c2n1 : 1000 to 10000 nM
Cc1cn2cc(NC(=O)c3ccc(N4CCNCC4)c4ccnnc34)ncc2n1 : > 10000 nM
Cc1cn2cc(NC(=O)c3ccc(N4CC5(CN(C)C5)C4)c4ccnnc34)cc(F)c2n1 : 1000 to 10000 nM
Cc1cn2cc(NC(=O)c3ccc(N4C[C@H]5C[C@@H]4C5N(C)C)c4ccnnc34)cc(F)c2n1 (some centres unmarked) [Compound 155] : > 10000 nM

Exercise: What AC50 appears in the records for this compound with HTT mRNA, alternative junction (AJ)? CCN1CCC(c2ccc(C(=O)Nc3cc(F)c4nc(C)cn4c3)c3nnccc23)CC1
Key: 1000 to 10000 nM

Exercise: Try the compound Cc1cn2cc(NC(=O)c3ccc(N4CCN5CCCC5C4)c4ccnnc34)cc(F)c2n1 (stereo in doubt) [Compound 153]
Key: 100 to 1000 nM

Exercise: Try the compound Cn1cc2ccc(NC(=O)c3ccc(N4CCNCC4)c4ccnnc34)cc2n1
Key: > 10000 nM

###

# Test system: HTT mRNA, alternative junction (AJ)
# procedure.summary: Splicing assay (RT-qPCR): increase in HTT alternative junction (AJ) mRNA
# Type: cell-based
# experimental.conditions: A673 or K562 cell line, 24 hours treatment, top dose 10 uM; concentration having 50% response in AJ increase
Counter-ions that a name gives are not always drawn.
Measured AC50 values are reported for all entries that follow.

Examples from the recorded data:
CCC1CN(c2ccc(C(=O)Nc3cc(F)c4nc(C)cn4c3)c3nnccc23)CCN1 (stereo in doubt) [Compound 152] : 1000 to 10000 nM
Cc1cn2nc(NC(=O)c3ccc(N4CCNCC4)c4ccnnc34)cc(C)c2n1 [Compound 100] : 100 to 1000 nM
Cc1cn2nc(NC(=O)c3ccc(C4CCNCC4)c4ccnnc34)cc(C)c2n1 [Compound 113] : 1000 to 10000 nM
Cc1cn2cc(NC(=O)c3ccc(N4CCNCC4)c4ccnnc34)cc(F)c2n1 [Compound 101] : 100 to 1000 nM
Cc1cn2nc(NC(=O)c3ccc(N4CCNCC4)c4ccnnc34)nc2c(C)n1 [Compound 122] : 1000 to 10000 nM

Exercise: What AC50 appears in the records for this compound with HTT mRNA, alternative junction (AJ)? Cc1nc2c(F)cc(NC(=O)c3ccc(N4CCNCC4)c4ccnnc34)cc2o1 [Compound 117]
Key: 1000 to 10000 nM

Exercise: Try the compound Cc1cn2cc(NC(=O)c3ccc(N4CCN(C)C(C)C4)c4ccnnc34)cc(F)c2n1 (stereo in doubt) [Compound 150]
Key: 1000 to 10000 nM

Exercise: Try the compound O=C(Nc1cn[nH]c1)c1ccc(N2CCNCC2)c2ccnnc12 [Compound 126]
Key: > 10000 nM

Exercise: Try the compound Cc1cn2cc(NC(=O)c3ccc(N4CCC(N(C)C)CC4)c4nccnc34)cc(F)c2n1 [Compound 158]
Key: 100 to 1000 nM

Exercise: Try the compound Cc1cn2cc(NC(=O)c3ccc(N4CCNC(C)(C)C4)c4ccnnc34)cc(F)c2n1 [Compound 106, hydrochloride]
Key: 1000 to 10000 nM

Exercise: Try the compound Cc1cn2cc(NC(=O)c3ccc(N4CCNC(C)C4)c4nccnc34)cc(F)c2n1 (stereo not shown) [Compound 157]
Key: 100 to 1000 nM

Exercise: Try the compound CCC1CN(c2ccc(C(=O)Nc3cc(F)c4nc(C)cn4c3)c3nnccc23)CCN1 (stereo in doubt) [Compound 151]
Key: 1000 to 10000 nM

Exercise: Try the compound Cc1cn2cc(NC(=O)c3ccc(N4CCNC(C)C4)c4ccnnc34)cc(F)c2n1 (stereo not shown) [Compound 128]
Key: 100 to 1000 nM

Exercise: Try the compound Cc1cn2cc(NC(=O)c3ccc(N(C)C4CCN(C)CC4)c4ccnnc34)cc(F)c2n1 [Compound 136]
Key: 1000 to 10000 nM

Exercise: Try the compound Cc1cn2cc(NC(=O)c3ccc(N4CCNCC4)c4cncnc34)cc(F)c2n1 [Compound 112]
Key: 1000 to 10000 nM

Exercise: Try the compound Cc1cn2cc(NC(=O)c3ccc(N4CCC(N5CCCC5)C4)c4ccnnc34)cc(F)c2n1 (stereo not shown) [Compound 133]
Key: 1000 to 10000 nM

###

# Test system: HTT mRNA, alternative junction (AJ)
# procedure.summary: Splicing assay (RT-qPCR): increase in HTT alternative junction (AJ) mRNA
# Assay type: cell-based
# experimental.conditions: A673 or K562 cell line, 24 hours treatment, top dose 10 uM; concentration having 50% response in AJ increase
# Method: Compounds described herein were used to modulate RNA transcript abundance in cells. The expression of a target mRNA was measured by detecting the formation of an exon-exon junction in the canonical transcript (CJ). A compound mediated exon-inclusion event was detected by observing an increase in formation of a new junction with an alternative exon (AJ). […] After treatment, the levels of the HTT mRNA targets were determined from each sample of cell lysate by cDNA synthesis followed by qPCR. […]
Counter-ions that a name gives are not always drawn.
property.label: AC50

Examples from the recorded data:
Cc1cn2cc(NC(=O)c3ccc(C4CCN(C)CC4)c4ccnnc34)cc(F)c2n1 : 1000 to 10000 nM
Cc1cn2cc(NC(=O)c3ccc(N4CCC(N(C)C)CC4)c4ccnnc34)cc(F)c2n1 : 100 to 1000 nM
Cc1cn2cc(NC(=O)c3ccc(N4C[C@H]5C[C@@H]4C5N(C)C)c4ccnnc34)cc(F)c2n1 (some centres unmarked) [Compound 148] : 1000 to 10000 nM
Cc1cn2cc(NC(=O)c3ccc(N4CC(C)(C)NC(C)(C)C4)c4ccnnc34)cc(F)c2n1 : 1000 to 10000 nM
Cc1cn2cc(NC(=O)c3ccc(N4CCC(N(C)C)C4)c4ccnnc34)cc(F)c2n1 (centres unmarked) : 1000 to 10000 nM
Cn1cc2c(F)cc(NC(=O)c3ccc(N4CCNCC4)c4ccnnc34)cc2n1 : > 10000 nM
Cc1cn2cc(NC(=O)c3ccc(N4CC5(CNC5)C4)c4ccnnc34)cc(F)c2n1 : 1000 to 10000 nM
Cc1cn2cc(NC(=O)c3ccc(N4CCN(C)C(C)C4)c4ccnnc34)cc(F)c2n1 (stereo in doubt) [Compound 149] : 1000 to 10000 nM
Cc1cn2cc(NC(=O)c3ccc(N4CCNC5(CC5)C4)c4ccnnc34)cc(F)c2n1 [Compound 105, hydrochloride] : 1000 to 10000 nM
Cc1cn2cc(NC(=O)c3ccc(N4CCN(C)CC4)c4ccnnc34)cc(F)c2n1 : 1000 to 10000 nM

Now turn to the next molecule.
Exercise: Requested read-out: AC50. Entry: Cc1cn2cc(NC(=O)c3ccc(N4CCC(NC(C)(C)C)C4)c4ccnnc34)cc(F)c2n1 (centres unmarked)
Key: 1000 to 10000 nM
